Target: IKKε (Homo sapiens, UniProt Q14164)
Construct: purchased Invitrogen PR8031B
Sequence (Q14164 whole entry): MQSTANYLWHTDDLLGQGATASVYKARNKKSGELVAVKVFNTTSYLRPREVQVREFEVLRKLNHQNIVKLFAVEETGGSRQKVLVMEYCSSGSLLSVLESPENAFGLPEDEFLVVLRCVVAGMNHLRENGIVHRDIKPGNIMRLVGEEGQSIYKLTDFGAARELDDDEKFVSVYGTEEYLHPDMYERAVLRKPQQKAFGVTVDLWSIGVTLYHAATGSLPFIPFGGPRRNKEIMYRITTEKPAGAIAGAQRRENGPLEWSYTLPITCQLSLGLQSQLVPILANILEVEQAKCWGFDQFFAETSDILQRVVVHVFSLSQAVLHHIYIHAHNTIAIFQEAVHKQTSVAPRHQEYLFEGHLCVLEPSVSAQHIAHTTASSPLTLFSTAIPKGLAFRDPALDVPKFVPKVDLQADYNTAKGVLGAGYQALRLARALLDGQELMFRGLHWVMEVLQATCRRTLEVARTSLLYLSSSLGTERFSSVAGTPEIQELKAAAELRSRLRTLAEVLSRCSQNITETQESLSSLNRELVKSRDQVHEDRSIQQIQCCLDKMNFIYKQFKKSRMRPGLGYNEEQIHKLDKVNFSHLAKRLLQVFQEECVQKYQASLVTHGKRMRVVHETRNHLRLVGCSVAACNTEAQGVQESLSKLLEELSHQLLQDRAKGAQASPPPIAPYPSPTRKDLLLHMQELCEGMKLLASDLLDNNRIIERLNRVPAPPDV
Assay: IKKε inhibition, ADP-Glo Kinase Assay
Format: biochemical
Settings: luminometer
Experimental: Inhibition activities on TNIK, IKKε and TBK1 were evaluated using the compounds of Examples 1 to 254. The inhibition activities on TNIK, IKKε and TBK1 were measured by a luminometer, TNIK/IKKε/TBK1 Kinase Enzyme System (Promega, Ca# V4158; Invitrogen, PR8031B, Promega, Ca# V3991) and ADP-Glo Kinase Assay using ADP-Glo™ Kinase Analysis Kit (Promega, Ca# V9101) and a kinase reaction buffer [40 mM Tris(pH 7.5), 20 mM MgCl2, 0.1 mg/mL BSA] in accordance with the manufacturer's protocol.
Collected IC50 values appear next to each entry.
Give a bare numeral; the unit µM is implied.

Known results for compounds:
- COMPOUND: "CC(NC(=O)c1ccc2[nH]nc(NC(=O)c3ccc(N4C[C@@H](C)N[C@@H](C)C4)cc3)c2c1)c1ccccc1 (stereo partly shown) [Example 186]"
  IC50 [µM]: 0.012
- COMPOUND: "CCC(NC(=O)c1ccc2[nH]nc(NC(=O)c3ccc(N4CCOCC4)cc3)c2c1)c1ccccc1 (stereo not shown) [Example 188]"
  IC50 [µM]: 0.017
- COMPOUND: "CCC(NC(=O)c1ccc2[nH]nc(NC(=O)c3ccc(N4CCN[C@H](C)C4)cc3)c2c1)c1cccs1 (stereo partly shown) [Example 98, 2,2,2-trifluoroacetate]"
  IC50 [µM]: 0.023
- COMPOUND: "Cc1ccc(CNC(=O)c2ccc3[nH]nc(NC(=O)c4ccc(N5CCOCC5)cc4)c3c2)s1 [Example 60]"
  IC50 [µM]: 0.28

Data point: O=C(Nc1n[nH]c2ccc(CNCc3cccs3)cc12)c1ccc(N2CCOCC2)cc1 [Example 123] ; IC50 = 4.47

Summary for this compound, CN1CCN(c2ccc(C(=O)Nc3n[nH]c4ccc(C(=O)NCC5CCC5)cc34)cc2)CC1 [Example 106] : IC50 is 0.15

// recorded IC50 for COCCNc1ccc(C(=O)Nc2n[nH]c3ccc(C(=O)NCc4cccs4)cc23)cc1 [Example 150] : 0.049

====

Molecular target: TBK1 (Homo sapiens)
Construct: purchased Promega V3991
Sequence (Q9UHD2 1-729): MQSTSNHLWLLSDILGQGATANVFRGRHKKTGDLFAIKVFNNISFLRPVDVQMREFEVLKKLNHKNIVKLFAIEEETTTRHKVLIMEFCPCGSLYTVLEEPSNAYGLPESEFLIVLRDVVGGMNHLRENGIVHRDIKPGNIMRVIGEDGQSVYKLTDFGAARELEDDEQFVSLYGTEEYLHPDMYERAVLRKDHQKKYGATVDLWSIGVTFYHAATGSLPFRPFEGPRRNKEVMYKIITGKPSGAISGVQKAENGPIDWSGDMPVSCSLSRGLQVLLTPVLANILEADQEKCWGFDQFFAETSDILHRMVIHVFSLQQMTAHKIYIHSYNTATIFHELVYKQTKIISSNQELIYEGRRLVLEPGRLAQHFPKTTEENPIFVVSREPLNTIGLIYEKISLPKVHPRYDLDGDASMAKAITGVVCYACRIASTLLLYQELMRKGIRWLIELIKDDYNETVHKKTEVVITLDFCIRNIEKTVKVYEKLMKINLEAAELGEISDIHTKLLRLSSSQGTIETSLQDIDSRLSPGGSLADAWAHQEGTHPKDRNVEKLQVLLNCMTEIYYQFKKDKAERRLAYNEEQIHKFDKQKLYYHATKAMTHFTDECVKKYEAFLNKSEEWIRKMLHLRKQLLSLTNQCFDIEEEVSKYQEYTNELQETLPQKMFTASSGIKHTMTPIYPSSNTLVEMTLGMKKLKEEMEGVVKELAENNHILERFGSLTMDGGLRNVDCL
Assay: TBK1 inhibition, ADP-Glo Kinase Assay
Assay type: biochemical
Details: luminometer
RECORDED METRIC: IC50 (µM)
Report as a plain number; the unit µM is understood.

Look over these answered cases.
- COMPOUND: "CC(NC(=O)c1ccc2[nH]nc(NC(=O)c3ccc(N4CCN(C)CC4)cc3)c2c1)c1cncs1 (stereo not shown)"
  SYSTEM: "TBK1 (Homo sapiens)"
  RECORDED METRIC: "IC50"
  UNIT OF MEASURE: "µM"
  RECORDED NUMBER: 0.011
- COMPOUND: "COCCNc1ccc(C(=O)Nc2n[nH]c3cc(-c4ncc(C)o4)sc23)cc1"
  SYSTEM: "TBK1 (Homo sapiens)"
  RECORDED METRIC: "IC50"
  UNIT OF MEASURE: "µM"
  RECORDED NUMBER: 0.14
- COMPOUND: "CN1CCN(c2ccc(C(=O)Nc3n[nH]c4ccc(C(=O)NCc5c[nH]nn5)cc34)cc2)CC1"
  SYSTEM: "TBK1 (Homo sapiens)"
  RECORDED METRIC: "IC50"
  UNIT OF MEASURE: "µM"
  RECORDED NUMBER: 0.24
- COMPOUND: "CN1CCN(c2ccc(C(=O)Nc3n[nH]c4ccc(C(=O)NCc5cnco5)cc34)cc2)CC1"
  SYSTEM: "TBK1 (Homo sapiens)"
  RECORDED METRIC: "IC50"
  UNIT OF MEASURE: "µM"
  RECORDED NUMBER: 0.035

Data point: CC(C)CC(NC(=O)c1ccc2[nH]nc(NC(=O)c3ccc(F)cc3)c2c1)c1cccs1 (stereo not shown) ; IC50 = 4.69

Given item C[C@H]1CN(c2ccc(C(=O)Nc3n[nH]c4ccc(C(=O)NC(C)(C)c5cccs5)cc34)cc2)CCN1 , the value recorded as its IC50 is 0.0049

Lab note: O=C(NCc1cccs1)c1ccc2[nH]nc(NC(=O)c3ccc(NC4CCCCCC4)cc3)c2c1 gave IC50 of 5.6

GET /value?item= CN1CCN(c2ccc(C(=O)Nc3n[nH]c4ccc(C(=O)NC5(c6cccs6)CC5)cc34)cc2)CC1 &field=IC50 returns 0.0025

# compound CN(C)CCNc1ccc(C(=O)Nc2n[nH]c3ccc(C(=O)NCc4cccs4)cc23)cc1 ; its IC50 = 0.0087

compound O=C(NCc1cccs1)c1ccc2[nH]nc(NC(=O)c3ccc(N4CCNCC4)cc3)c2c1 , IC50 observed: 0.0003

Documented IC50 of O=C(NCc1cccs1)c1ccc2[nH]nc(NC(=O)c3ccc(NC4CCCCC4)cc3)c2c1 : 0.08

// IC50 value for CN1CCN(c2ccc(C(=O)Nc3n[nH]c4ccc(C(=O)NCc5ncon5)cc34)cc2)CC1 [Example 118, 2,2,2-trifluoroacetate] : 0.3

Entry CC(C)(NC(=O)c1ccc2[nH]nc(NC(=O)c3ccc(F)cc3)c2c1)c1ccccc1 , IC50 reported as 0.31

Recorded result, CN1CCN(c2ccc(C(=O)Nc3n[nH]c4ccc(C(=O)NCc5ccco5)cc34)cc2)CC1 , IC50: 0.0081

Form: compound = CC(C)CCNC(=O)c1ccc2[nH]nc(NC(=O)c3ccc(F)cc3)c2c1 ; IC50 = 0.42

Recorded result, CCC(NC(=O)c1ccc2[nH]nc(NC(=O)c3ccc(N4CCNCC4)cc3)c2c1)c1ccccc1 (stereo not shown) , IC50: 0.0039

In plain terms, C[C@H]1CN(c2ccc(C(=O)Nc3n[nH]c4ccc(C(=O)NC5(c6ccccc6)CC5)cc34)cc2)CCN1 has a documented IC50 of 0.0046

Lab note: measured IC50 of O=C(NCc1ccncc1)c1ccc2[nH]nc(NC(=O)c3ccc(N4CCOCC4)cc3)c2c1 was 0.019

Data point: CN1CCN(c2ccc(C(=O)Nc3n[nH]c4ccc(C(=O)NCc5ccsc5)cc34)cc2)CC1 ; IC50 = 0.0014

The measured IC50 associated with CC(NC(=O)c1ccc2[nH]nc(NC(=O)c3ccc(N4CCN(C)CC4)cc3)c2c1)c1nccs1 (stereo not shown) reads 0.014

Entry O=C(NCc1cccs1)c1ccc2[nH]nc(NC(=O)c3ccc(N4CCOCC4)cc3)c2c1 , IC50 reported as 0.004

According to the records, this compound O=C(NCc1ccccc1)c1ccc2[nH]nc(NC(=O)c3ccc(N4CCOCC4)cc3)c2c1 displays IC50 of 0.011

IC50 for Cc1cnc(-c2cc3[nH]nc(NC(=O)c4ccc(NCCN5CCCCC5)cc4)c3s2)o1 is 0.12

get_value(item= Cc1cc(CNC(=O)c2ccc3[nH]nc(NC(=O)c4ccc(N5CCN(C)CC5)cc4)c3c2)ccn1 , readout=IC50) returns 0.18

====

molecular target: IKKε (Homo sapiens, UniProt Q14164); construct: purchased Invitrogen PR8031B; test: IKKε inhibition, ADP-Glo Kinase Assay; format: biochemical; settings: luminometer
RECORDED METRIC: IC50 (µM)
I only need the number, in µM, no unit after it.

Below, 5 molecules whose answers are already recorded.
- MOLECULE: "O=C(NCc1ccccn1)c1ccc2[nH]nc(NC(=O)c3ccc(F)cc3)c2c1"
  RECORDED NUMBER: 2.62
- MOLECULE: "CCCC(NC(=O)c1ccc2[nH]nc(NC(=O)c3ccc(F)cc3)c2c1)c1cccs1 (stereo not shown)"
  RECORDED NUMBER: 1.23
- MOLECULE: "CC(=O)Nc1ccc(C(=O)Nc2n[nH]c3ccc(C(=O)NCc4cccs4)cc23)cc1"
  RECORDED NUMBER: 0.079
- MOLECULE: "CCC[C@@H](NC(=O)c1ccc2[nH]nc(NC(=O)c3ccc(N4CCN(C)CC4)cc3)c2c1)c1ccccc1"
  RECORDED NUMBER: 0.038
- MOLECULE: "O=C(NCC1CCCCC1)c1ccc2[nH]nc(NC(=O)c3ccc(N4CCOCC4)cc3)c2c1"
  RECORDED NUMBER: 0.11

Sure, the documented IC50 for O=C(Nc1n[nH]c2ccc(C(=O)NC(c3cccs3)C3CC3)cc12)c1ccc(N2CCNCC2)cc1 (stereo not shown) is 0.013

Recorded IC50 (molecule CC(C)CCNC(=O)c1ccc2[nH]nc(NC(=O)c3ccc(N4CCN(C)CC4)cc3)c2c1 [Example 114, 2,2,2-trifluoroacetate] ): 0.41
